Data origin: patent US20020026053A1

system.name: EGFR (Homo sapiens, UniProt P00533)
Construct: endogenous in cells; host or cells: A431 cells (lysate, captured with SUMO1 anti-EGFR antibody)
Sequence (P00533 25-1210): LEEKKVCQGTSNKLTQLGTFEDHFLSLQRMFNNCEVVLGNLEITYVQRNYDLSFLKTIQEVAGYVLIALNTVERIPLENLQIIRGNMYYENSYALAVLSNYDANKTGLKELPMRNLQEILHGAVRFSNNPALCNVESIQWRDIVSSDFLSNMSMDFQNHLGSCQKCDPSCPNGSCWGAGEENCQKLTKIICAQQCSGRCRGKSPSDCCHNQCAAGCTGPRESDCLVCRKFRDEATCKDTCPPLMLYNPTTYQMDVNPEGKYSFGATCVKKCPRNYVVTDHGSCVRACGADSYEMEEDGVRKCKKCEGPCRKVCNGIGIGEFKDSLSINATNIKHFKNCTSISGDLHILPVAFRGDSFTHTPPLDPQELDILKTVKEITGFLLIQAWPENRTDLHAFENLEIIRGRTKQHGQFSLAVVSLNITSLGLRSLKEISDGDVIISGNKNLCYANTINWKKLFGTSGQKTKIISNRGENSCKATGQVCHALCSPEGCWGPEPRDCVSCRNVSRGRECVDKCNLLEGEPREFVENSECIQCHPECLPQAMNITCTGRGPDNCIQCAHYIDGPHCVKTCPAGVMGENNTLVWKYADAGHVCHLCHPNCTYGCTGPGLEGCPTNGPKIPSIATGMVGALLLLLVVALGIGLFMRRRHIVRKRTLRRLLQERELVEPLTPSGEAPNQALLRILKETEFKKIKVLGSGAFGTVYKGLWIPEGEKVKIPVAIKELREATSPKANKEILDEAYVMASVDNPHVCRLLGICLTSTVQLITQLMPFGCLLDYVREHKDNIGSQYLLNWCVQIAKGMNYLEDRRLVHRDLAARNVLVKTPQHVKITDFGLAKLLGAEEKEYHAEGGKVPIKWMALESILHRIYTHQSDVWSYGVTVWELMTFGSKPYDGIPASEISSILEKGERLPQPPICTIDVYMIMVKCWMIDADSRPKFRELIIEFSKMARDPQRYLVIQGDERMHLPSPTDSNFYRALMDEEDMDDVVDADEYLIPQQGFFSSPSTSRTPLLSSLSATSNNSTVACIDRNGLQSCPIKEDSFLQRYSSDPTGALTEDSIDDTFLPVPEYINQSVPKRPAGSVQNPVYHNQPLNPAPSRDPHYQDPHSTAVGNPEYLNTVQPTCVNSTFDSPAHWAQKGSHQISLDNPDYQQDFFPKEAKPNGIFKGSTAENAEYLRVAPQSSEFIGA
test: Biochemical EGFR Assay
Set-up: concentration or dose not given beside the values
recorded.conditions: protocol P.167

molecule	system.name	Biochem EGFR % Inhibition (P.167) / %
O=C1Nc2c(Br)cc(Br)cc2C1=Cc1cc(O)c(O)c(O)c1 [10739/A07]	EGFR (Homo sapiens, UniProt P00533)	65.6
Cc1c(Br)cc(Br)c2c1C(=Cc1cccc(Oc3ccc(Cl)c(Cl)c3)c1)C(=O)N2 [10738/H03]	EGFR (Homo sapiens, UniProt P00533)	16.7
O=C1Nc2ccc(S(=O)(=O)N3CCOCC3)cc2C1=Cc1cccc(F)c1F [10737/F05]	EGFR (Homo sapiens, UniProt P00533)	−24.0
COc1ccc(C=C2C(=O)Nc3ccc(I)cc32)cc1F [10737/B06]	EGFR (Homo sapiens, UniProt P00533)	22.5
CNS(=O)(=O)c1ccc2c(c1)C(=CC1COc3ccccc3O1)C(=O)N2 (stereo not drawn) [10739/D05]	EGFR (Homo sapiens, UniProt P00533)	−10.6
COC1CCCN1C=C1C(=O)Nc2ccc(S(=O)(=O)Nc3ccc(C(F)(F)F)cc3)cc21 (stereo not drawn) [10740/E04]	EGFR (Homo sapiens, UniProt P00533)	12.3
Cc1c(Br)cc(Br)c2c1C(=Cc1cc(Br)cs1)C(=O)N2 [10740/H10]	EGFR (Homo sapiens, UniProt P00533)	−25.5
Cc1c(Br)ccc2c1C(=Cc1cc(O)c(O)c(O)c1)C(=O)N2 [10739/C07]	EGFR (Homo sapiens, UniProt P00533)	34.7
COc1ccc(C=C2C(=O)Nc3ccc(Br)c(C)c32)cc1F [10737/C06]	EGFR (Homo sapiens, UniProt P00533)	29.0
Cc1c(Br)cc(Br)c2c1C(=Cc1cn(C)c3ccccc13)C(=O)N2 [10740/H07]	EGFR (Homo sapiens, UniProt P00533)	−5.3
Cc1c(Br)cc(Br)c2c1C(=Cc1ccoc1)C(=O)N2 [10739/H10]	EGFR (Homo sapiens, UniProt P00533)	−26.6
CCc1ccc(C=C2C(=O)Nc3c(Br)cc(Br)c(C)c32)cc1 [10736/H09]	EGFR (Homo sapiens, UniProt P00533)	35.7
Cc1ccc(C)c(C=C2C(=O)Nc3ccc(S(=O)(=O)Nc4ccc(C(F)(F)F)cc4)cc32)c1 [10737/E07]	EGFR (Homo sapiens, UniProt P00533)	−12.3
CN(C)CCCOc1ccc(C=C2C(=O)Nc3ccc(I)cc32)cc1 [10739/B09]	EGFR (Homo sapiens, UniProt P00533)	11.9
O=C1Nc2ccc(S(=O)(=O)N3CCOCC3)cc2C1=Cc1cc(O)ccc1[N+](=O)[O-] [10738/F05]	EGFR (Homo sapiens, UniProt P00533)	51.5
CCCCOc1ccc(C=C2C(=O)Nc3ccc(S(=O)(=O)NC)cc32)cc1 [10740/D11]	EGFR (Homo sapiens, UniProt P00533)	19.3
Cc1c(Br)ccc2c1C(=Cc1cccc(Oc3cccc(C(F)(F)F)c3)c1)C(=O)N2 [10737/C11]	EGFR (Homo sapiens, UniProt P00533)	−5.6
CCCCOc1ccc(C=C2C(=O)Nc3ccc(CCCl)cc32)cc1 [10740/G11]	EGFR (Homo sapiens, UniProt P00533)	−3.4
